experiment: Acute toxicity in po dosed Mus musculus ddY (mouse); format: organism-based; conditions: in vivo, read-out: LC50 (the source's name)
measured_metric: LD50 (mg/kg)
Form entry: value (mg/kg) — number only.

Task: Which value of LD50 has been reported for CCOC(=O)CC(SP(=S)(OC)OC)C(=O)OCC (stereo unspecified) [MALATHION] in the records?
Result: 347
